In this section, each of the compounds is paired with its reported IC50.
# target: EGFR Exon19Del/T790M (Homo sapiens, UniProt P00533, DEL746-750/T790M)
# Construct: purchased Carna Bio
# Sequence (P00533 with tags, fused parts or gaps DEL746-750/T790M limits assumed): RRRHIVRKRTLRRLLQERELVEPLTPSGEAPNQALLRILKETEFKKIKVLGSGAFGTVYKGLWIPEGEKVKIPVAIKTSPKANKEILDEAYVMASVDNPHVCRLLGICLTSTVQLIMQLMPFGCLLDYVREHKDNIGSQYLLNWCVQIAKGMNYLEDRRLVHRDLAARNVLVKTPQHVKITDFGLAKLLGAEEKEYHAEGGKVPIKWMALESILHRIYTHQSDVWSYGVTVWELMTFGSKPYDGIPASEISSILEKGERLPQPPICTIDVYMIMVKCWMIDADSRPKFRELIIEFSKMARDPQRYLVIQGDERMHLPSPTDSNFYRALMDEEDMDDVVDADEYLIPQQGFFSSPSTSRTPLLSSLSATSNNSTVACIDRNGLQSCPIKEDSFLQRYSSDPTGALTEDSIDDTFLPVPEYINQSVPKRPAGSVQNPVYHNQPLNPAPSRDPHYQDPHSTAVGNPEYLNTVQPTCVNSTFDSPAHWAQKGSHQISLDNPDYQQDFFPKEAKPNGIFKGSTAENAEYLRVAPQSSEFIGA
# assay.info: Inhibition of EGFR Exon19Del/T790M biochemical enzymatic activity (HTRF)
# assay.setup: EGFR Del19-T790M, 1 mM ATP, 1 h, room temperature, read-out: IC50 (nM) @Del19-T790M

Some solved cases for reference:
[
  {
    "compound": "CN1CCN(C2CCN(c3ccc4nc5n(c4c3)C34CCC(CN(CCOc6c(cnn6C)-c6cc(cn(C)c6=O)C(=O)N5)C3)C4)CC2)CC1 (single isomer, unassigned) [Example A106A]",
    "target": "EGFR Exon19Del/T790M (Homo sapiens, UniProt P00533, DEL746-750/T790M)",
    "result": "> 5000 nM"
  },
  {
    "compound": "C[C@@H]1CCCOc2c(cnn2C2CC2)-c2cc(cn(C)c2=O)C(=O)Nc2nc3ccc(N4CCN(C)CC4)cc3n2C1",
    "target": "EGFR Exon19Del/T790M (Homo sapiens, UniProt P00533, DEL746-750/T790M)",
    "result": "6.2 nM"
  },
  {
    "compound": "C[C@@H]1CCCOc2c(cnn2C)-c2cc(cn(C)c2=O)C(=O)Nc2nc3ccc(N4CCN(C5COC5)CC4)cc3n2C1",
    "target": "EGFR Exon19Del/T790M (Homo sapiens, UniProt P00533, DEL746-750/T790M)",
    "result": "5 nM"
  }
]

What measured IC50 goes with Cn1ncc2c1OCCN1CC3CCC(C3)(C1)n1c(nc3ccc(N4CC(N5CCOCC5)C4)cc31)NC(=O)c1cc-2c(=O)n(C)c1 (single isomer, unassigned) [Example A69B] ?
2 nM

----------
In this section, each of the compounds is paired with its reported IC50.
# target: EGFR[T790M/C797S/L858R] (Homo sapiens, UniProt P00533, C797S/L858R/T790M)
# Construct: purchased Carna Bio
# Sequence (P00533 25-1210 T790M/C797S/L858R): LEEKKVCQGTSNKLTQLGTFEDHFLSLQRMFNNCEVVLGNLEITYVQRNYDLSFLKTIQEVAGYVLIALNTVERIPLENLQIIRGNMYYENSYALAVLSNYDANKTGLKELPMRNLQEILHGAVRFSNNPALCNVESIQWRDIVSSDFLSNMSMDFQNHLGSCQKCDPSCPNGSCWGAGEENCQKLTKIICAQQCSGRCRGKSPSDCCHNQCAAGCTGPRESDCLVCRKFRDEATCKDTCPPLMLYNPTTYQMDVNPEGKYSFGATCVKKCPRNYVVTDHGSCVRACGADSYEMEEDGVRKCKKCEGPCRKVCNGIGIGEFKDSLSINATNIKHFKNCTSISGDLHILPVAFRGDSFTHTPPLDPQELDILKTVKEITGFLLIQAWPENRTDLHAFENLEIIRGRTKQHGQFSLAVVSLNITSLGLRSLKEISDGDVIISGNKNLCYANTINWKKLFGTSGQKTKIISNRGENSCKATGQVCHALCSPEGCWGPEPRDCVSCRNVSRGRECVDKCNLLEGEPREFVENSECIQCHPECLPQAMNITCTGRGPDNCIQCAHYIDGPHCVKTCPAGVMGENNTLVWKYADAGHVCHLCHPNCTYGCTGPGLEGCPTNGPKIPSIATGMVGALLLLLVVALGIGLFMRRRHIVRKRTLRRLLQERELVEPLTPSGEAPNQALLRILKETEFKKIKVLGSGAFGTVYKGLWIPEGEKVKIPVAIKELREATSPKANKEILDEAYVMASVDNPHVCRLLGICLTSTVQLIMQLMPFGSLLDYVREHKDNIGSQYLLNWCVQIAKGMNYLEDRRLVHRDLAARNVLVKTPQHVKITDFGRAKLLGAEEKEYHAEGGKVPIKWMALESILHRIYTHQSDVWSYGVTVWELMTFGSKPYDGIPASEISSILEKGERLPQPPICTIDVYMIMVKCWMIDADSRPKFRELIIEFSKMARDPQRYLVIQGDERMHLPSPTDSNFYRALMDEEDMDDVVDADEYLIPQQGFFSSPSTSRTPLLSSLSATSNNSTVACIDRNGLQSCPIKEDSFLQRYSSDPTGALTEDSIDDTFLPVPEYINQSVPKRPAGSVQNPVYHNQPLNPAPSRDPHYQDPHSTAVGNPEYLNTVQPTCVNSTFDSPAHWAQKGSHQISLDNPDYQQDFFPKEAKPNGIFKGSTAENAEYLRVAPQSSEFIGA
# assay.info: Inhibition of EGFR[T790M/C797S/L858R] biochemical enzymatic activity (HTRF)
# assay.setup: EGFR[T790M/C797S/L858R], 1 mM ATP, 1 h at room temperature, read-out: IC50 @T790M- C797S - L858R
Report as a plain number; the unit nM is understood.

[
  {
    "compound": "Cc1cc2cc(n1)-c1cnn(C)c1OCCN1CC3CCC(CC3)(C1)n1c(nc3ccc(N4CCN(C5CC5)CC4)cc31)NC2=O",
    "measure.unit": "nM",
    "recorded.number": 2.9
  },
  {
    "compound": "Cc1cc2cc(n1)-c1cnn(C)c1OCCN1CC3CCC(C3)(C1)n1c(nc3ccc(N4CCC5(CN(C)C5)C4)cc31)NC2=O (single isomer, unassigned) [Example B50B]",
    "measure.unit": "nM",
    "recorded.number": 1.5
  },
  {
    "compound": "Cc1cc2cc(n1)-c1cnn(C)c1OCCN1CC3CCC(C3)(C1)n1c(nc3ccc(N4CCC5(CCN(C)CC5)C4)cc31)NC2=O (single isomer, unassigned) [Example B51B]",
    "measure.unit": "nM",
    "recorded.number": 2.9
  }
]

What measured IC50 goes with Cc1cc2cc(n1)-c1cnn(C)c1OCCN1CC3CCC(CC3)(C1)n1c(nc3ccc(N4CCC5(CC4)CCN5C)cc31)NC2=O ?
5.6

What measured IC50 goes with Cc1cc2cc(n1)-c1cnn(C)c1OCCN1CC3CCC(C3)(C1)n1c(nc3ccc(N4CCN(C)CC4)cc31)NC2=O (stereo not shown) [Example B9B] ?
1

What measured IC50 goes with Cc1cc2cc(n1)-c1cnn(C)c1OCCCCCn1c(nc3ccc4c(c31)CN(C1COC1)CC4)NC2=O ?
1990

What measured IC50 goes with Cc1cc2cc(n1)-c1cnn(C)c1OCCN1CC3CCC(C3)(C1)n1c(nc3ccc(N4CCC(N5CCN(C)CC5)CC4)cc31)NC2=O (single isomer, unassigned) [Example B59B] ?
4.4

What measured IC50 goes with Cc1cc2cc(n1)-c1cnn(C)c1OCCN1CC3CCC(C3)(C1)n1c(nc3ccc(N4CC[C@@H](N(C)C)C4)cc31)NC2=O (single isomer, unassigned) [Example B42B] ?
5.7

What measured IC50 goes with Cc1cc2cc(n1)-c1cnn(C)c1OCCN1CC3CCC(CC3)(C1)n1c(nc3ccc(N4CC[C@@H](N(C)C)C4)cc31)NC2=O ?
13

What measured IC50 goes with Cc1cc2cc(n1)-c1cnn(C)c1OCCCCCn1c(nc3ccc4c(c31)CCN(C1COC1)C4)NC2=O ?
4160
